experiment: Measurement of logP values by HPLC on reversed phase columns (EEC directive 79/831 Annex V.A8); format: physicochemical; conditions: pH 2.7
Measure: logP

>>> print(df.to_string())
                                   compound  result
0  CC(C)CN(C)C(=O)c1cc(-c2ncnc(Nc3cccc(OC(F)F)c3)n2)ccn1    3.15
1  CC(C)N(C)C(=O)c1cc(-c2ncnc(Nc3cccc(F)c3)n2)ccn1    2.67
2  CCOC1CCC(NC(=O)c2cc(-c3ncnc(Nc4cccc(Cl)c4)n3)ccn2)CC1 (centres unmarked)    4.39
3  O=C(NCC1CC1)c1cc(-c2ncnc(Nc3ccc(F)c(Cl)c3)n2)ccn1    3.83
4  CCON=C(CC)c1cc(-c2ncnc(Nc3cccc(Cl)c3)n2)ccn1 (mixture of isomers)     5.1

a = CC#CCON=C(CC)c1cc(-c2ncnc(Nc3cccc(Cl)c3)n2)ccn1 (mixture of isomers)
b = CN(C)C(=O)c1cc(-c2ncnc(Nc3cc(F)ccc3F)n2)ccn1
## Input I would appreciate it if you could say which entry, a or b , has the lower logP value. Your choice should be expressed through its label.
## Output b
(b: 2.1, a: 4.91)
